test_method_notes: osmotic lysis modulators in infected erythrocytes, primary screen, PSAC antagonist project, cell-based, P. falciparum Indochina, OD700, 3 h (AID 1156)
measurement_parameters: higher = more signal, called active from +8 up or from −8 down
Calls of active or inactive are those of the source.
assay_endpoint: z-score

Worked cases, z-score given:
>  <compound>
CC(C)CN1C(=O)[C@@]2(Cc3ccccc31)c1ccccc1C(=O)N(C1CCCCC1)[C@H]2c1ccc(CO)cc1

>  <z-score>
-0.0544 (inactive)

$$$$
>  <compound>
COc1ccc([Si](C)(C)[C@H]2[C@H](CC(=O)N(CCO)Cc3ccccc3)O[C@@]3(C(=O)N(C)c4ccccc43)[C@@H]2C)cc1

>  <z-score>
-1.12 (inactive)

$$$$
>  <compound>
C=CCN1C(=O)[C@@]2(Cc3ccccc3)N=C(c3ccc(OCCCO)cc3)O[C@H]2c2ccccc21

>  <z-score>
2.61 (inactive)

$$$$
>  <compound>
CC(C)(C)OC(=O)CC[C@]1(C(=O)NCCN2CCOCC2)N=C(c2ccc(OCCCO)cc2)O[C@H]1c1ccccc1CN=[N+]=[N-]

>  <z-score>
0.434 (inactive)

$$$$
>  <compound>
CC(=O)NCCCC[C@@H]1NC(=O)[C@H]2C[C@@H](C(=O)NCCCCCCN(C)C)[C@@H](c3ccc(O)cc3)N2C1=O

>  <z-score>
1.92 (inactive)

$$$$
>  <compound>
COc1ccc([Si](C)(C)[C@H]2[C@H](CCO)O[C@@]3(C(=O)N(Cc4ccc(N5CCCCC5=O)cc4)c4ccccc43)[C@@H]2C)cc1

>  <z-score>
-0.512 (inactive)

$$$$

From here, focus on the item given below.
May I ask what z-score has been recorded for N#Cc1ccc(NN2C(C(O)c3ccc(I)cc3)C=CC3C(=O)N(c4ccccc4)C(=O)C32)cc1 (configuration not stated) ?
-1.43 (inactive)

###

test_method_notes: E. coli DRC41 culture turbidity changes, primary screen, E. coli filamentation inducer project, strain DRC41, OD650, 48 h (AID 1152);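 also: E. coli MC1000 strain DRC41 lacking acrAB efflux pump and sulA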
measurement_parameters: E. coli DRC41 (acrAB sulA), higher = more signal, called active from +8 up or from −8 down
assay_endpoint: z-score
A bare number is all that is needed in reply.

May I ask what z-score has been recorded for C=CCOC(=O)[C@@H]1[C@H]2C(=O)O[C@H](c3ccccc3)[C@H](c3ccccc3)N2[C@H](c2ccc(OCCOC(=O)[C@H]3C[C@H]4C(=O)N[C@@H](CCCCNC(C)=O)C(=O)N4[C@H]3c3ccc(O)cc3)cc2)[C@@]12C(=O)Nc1ccc(I)cc12 ?
-0.725

###

test_method_notes: small-molecule binders of probe aLefty1, primary screen, biochemical, small-molecule microarray, 635/667 nm fluorescence (AID 1153);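 also: score merges spot fluorescence with signal-to-noise ratio from the scanned slide images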
measurement_parameters: higher = more signal
Please mark yes (1) if the recorded composite z-score is equal to or greater than 0.2, and no (0) if it falls below.

Worked cases, answers included:
>  <structure_as_smiles>
Cc1ccc(S(=O)(=O)N[C@H]2COC(=O)CC=C[C@H](C)COC(=O)N[C@@H](C)C(=O)CC=C[C@@H]2C)cc1

>  <class_assignment>
no (0)

$$$$
>  <structure_as_smiles>
[N-]=[N+]=NCc1ccccc1C[C@@]1(C(=O)N2CCOCC2)N=C(c2ccc(OCCCO)cc2)O[C@@H]1c1ccccc1N=[N+]=[N-]

>  <class_assignment>
yes (1)

$$$$
>  <structure_as_smiles>
COC(=O)Cn1c(C(=O)N2CCCC2)cc2c1C[C@H]1CN(C(=O)c3ccccc3)[C@@](Cc3ccc(OC)cc3)(C(=O)OC)[C@@H]21

>  <class_assignment>
yes (1)

$$$$
>  <structure_as_smiles>
C[C@]1(C(=O)NCCN2CCOCC2)c2ccccc2C(=O)N(Cc2ccccc2)[C@H]1c1ccc(CO)cc1

>  <class_assignment>
no (0)

$$$$

Please examine the following record next.
Does the compound C=CCOC(=O)[C@@H]1[C@H]2C(=O)O[C@H](c3ccccc3)[C@H](c3ccccc3)N2[C@H](c2ccc(OCCOC(=O)[C@H]3C[C@H]4C(=O)N5CCC[C@H]5C(=O)N4[C@H]3c3ccc(O)cc3)cc2)[C@@]12C(=O)Nc1ccccc12 have recorded composite z-score that is 0.2 or more?
yes (1)

###

test_method_notes: small-molecule binders of probe aNOTCH3, primary screen, biochemical, small-molecule microarray, 635/667 nm fluorescence (AID 1120);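 also: probe is a biotin-tagged antibody raised against NOTCH3 rather than NOTCH3 protein; score merges spot fluorescence near 667 nm with spot signal to noise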
measurement_parameters: higher = more signal
Please mark Satisfied if the recorded composite z-score is equal to or greater than -0.03, and Not satisfied if it falls below.

Worked cases, answers included:
>  <compound>
C=CCOC(=O)[C@@H]1[C@H]2C(=O)O[C@H](c3ccccc3)[C@H](c3ccccc3)N2[C@H](c2ccc(OCCOC(=O)[C@H]3C[C@H]4C(=O)N5CCC[C@H]5C(=O)N4[C@H]3c3ccc(O)cc3)cc2)[C@@]12C(=O)Nc1ccccc12

>  <class_assignment>
Not satisfied

$$$$
>  <compound>
COc1ccc(C(O)C2C=CC3C(=O)N(C)C(=O)C3N2N2CCCCC2)cc1OCc1ccccc1 (stereo not given)

>  <class_assignment>
Satisfied

$$$$
>  <compound>
COc1cc(CO)cc(I)c1O[C@H]1C=C(C(=O)NCCO)C[C@@H](NCCc2c[nH]c3ccccc23)[C@@H]1O

>  <class_assignment>
Satisfied

$$$$
>  <compound>
CCCNC(=O)[C@@H]1c2ccccc2C(=O)N(Cc2cc(F)cc(C(F)(F)F)c2)[C@H]1c1ccc(CO)cc1

>  <class_assignment>
Satisfied

$$$$
>  <compound>
COCCOC(=O)N1C(=O)[C@@]2(c3cc(C#CCNC(N)=O)ccc31)[C@H](C(=O)N1CCCCCCC1)[C@H]1C(=O)O[C@H](c3ccccc3)[C@H](c3ccccc3)N1[C@@H]2c1ccccc1OCCO

>  <class_assignment>
Satisfied

$$$$

Does the compound C#CCCCON=C1C[C@@H](O)[C@@H](O)[C@@H]2[C@@H]3C(=O)N(Cc4ccc5c(c4)OCO5)C(=O)[C@@H]3CC[C@@H]12 have recorded composite z-score that is -0.03 or more?
Satisfied

Field entry: COc1ccc(-c2ccccc2[C@@H]2N[C@H](C(=O)O)CC[C@H]2C)cc1
Not satisfied

Field entry: C=CC[C@]1(C(=O)O)N=C(c2ccc(OCCCO)cc2)O[C@H]1c1ccccc1
Not satisfied

Field entry: O=C1O[C@@H](c2ccccc2)[C@@H](c2ccccc2)N2[C@@H](c3ccc(O)cc3)[C@]3(C(=O)Nc4ccccc43)[C@@H](C(=O)N3CCN(c4ncccn4)CC3)[C@H]12
Not satisfied

Field entry: COC(=O)C1=CC(c2ccc(CO)cc2)=CC(c2cccs2)N(Cc2cccc(OC(F)(F)F)c2)C=C1C(=O)OC (stereo not given)
Satisfied

Field entry: CCCC[C@@H]1C[C@H]1[C@@H](NC(=O)c1ccccc1)c1ccccc1C(F)(F)F
Satisfied

###

test_method_notes: CREB reporter modulators under forskolin, primary screen, cell-based, PC12, CRE-LacZ reporter, forskolin-stimulated (AID 1146);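 also: PC12 cells with 6xCRE LacZ reporter stimulated by forskolin 10 µM; beta-galactosidase reporter signal reflecting CREB driven transcription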
measurement_parameters: luminescence, 4.5 h, higher = more signal, called active from +8 up or from −8 down
Each item that follows carries a reported z-score.
A bare number is all that is needed in reply.

Worked cases, z-score given:
>  <compound>
COC(=O)Cn1c(C(=O)N2CCCC2)cc2c1C[C@H]1CN(C(=O)c3ccccc3)[C@@](Cc3ccccc3)(C(=O)OC)[C@@H]21

>  <quantitative_result>
-0.402

$$$$
>  <compound>
CO[C@H]1COC(=O)[C@H](C)NC(=O)CC=C[C@@H](C)[C@H](NS(=O)(=O)c2ccc(C)cc2)COC(=O)CC=C[C@@H]1C

>  <quantitative_result>
-1.27

$$$$
>  <compound>
CO[C@H]1COC(=O)[C@H](C)NC(=O)CC=C[C@@H](C)[C@H](NS(=O)(=O)c2ccc(C)cc2)COC(=O)[C@@H](OCc2ccccc2)C=C[C@@H]1C

>  <quantitative_result>
-0.594

$$$$
>  <compound>
O=C(NCC(O)CO)[C@]1(Cc2ccccc2)N=C(c2ccc(OCCCO)cc2)O[C@@H]1c1ccccc1 (stereo partly drawn)

>  <quantitative_result>
-1.08

$$$$

May I ask what z-score has been recorded for CO[C@H]1COC(=O)CC=C[C@H](C)[C@@H](OC)COC(=O)[C@H](Cc2ccccc2)NC(=O)CC=C[C@@H]1C ?
-0.802

Field entry: COC(=O)[C@@]1(Cc2ccccc2CN=[N+]=[N-])N=C(c2ccc(OCCCO)cc2)O[C@H]1c1ccccc1N=[N+]=[N-]
-0.505

Field entry: CC(C)C[C@@H]1NC(=O)[C@H](CC(C)C)NC(=O)[C@@]23C(=O)N[C@@H](Cc4ccccc4)C2[C@H](C)[C@@]2(C)O[C@H]2C3/C=C/CC/C=C/CNC1=O (stereo partly drawn)
-0.792

Field entry: CCOC(=O)C1=CC[C@@H](c2ccccc2)N(S(=O)(=O)c2ccc(C)cc2)[C@H]1C
-0.664

Field entry: COc1ccc([Si](C)(C)[C@@H]2[C@@H](CC(=O)N(CCO)Cc3ccccc3)O[C@]3(C(=O)N(Cc4cccc(N5CCC5=O)c4)c4ccccc43)[C@H]2C)cc1
0.398

Field entry: COCCOC(=O)N1C(=O)[C@@]2(c3cc(C#CCCO)ccc31)[C@H](c1ccc(O)cc1)N1[C@H](c3ccccc3)[C@H](c3ccccc3)OC(=O)[C@H]1[C@@H]2C(=O)Nc1nc2ccccc2s1
-0.0062
